These data points were gathered from patent US11938123B2.

- System: T47D
- assay overview: Cell viability, PHI-101 alone or with cisplatin (Example 2)
- Type: cell-based
- assay conditions: Homo sapiens, medium instead of cisplatin, 72 hours

>  <compound>
NC(=O)Nc1cc(C#Cc2cccc(F)c2)sc1C(=O)N[C@H]1CCCNC1 [PHI-101]

>  <IC50 [µM]>
19.2

$$$$

----------
- Tested on: T47D
- assay overview: Cell viability, olaparib alone or with PHI-101 (Example 3)
- Type: cell-based
- assay conditions: Homo sapiens, medium instead of PHI-101, 72 hours

>  <smiles notation>
O=C(c1cc(Cc2n[nH]c(=O)c3ccccc23)ccc1F)N1CCN(C(=O)C2CC2)CC1

>  <tested target>
T47D

>  <IC50>
77 µM

$$$$
